Catalogue of TGI values
System: NCI-H460 lung
Experiment: NCI tumour cell line growth inhibition, 48 h
property name: TGI

>  <molecule>
COc1ccccc1C1C(Cl)C(=O)N1NC(=O)Cc1ccccc1 (centres undefined)

>  <target or test system>
NCI-H460 lung

>  <property name>
TGI

>  <recorded value>
> 100 µM

$$$$
>  <molecule>
CCCCCCc1cc2cc(C(=O)Nc3cccc(C(F)(F)F)c3)c(=N)oc2cc1O

>  <target or test system>
NCI-H460 lung

>  <property name>
TGI

>  <recorded value>
> 32.1 µM

$$$$
>  <molecule>
C=CCn1c(=O)c(-c2ccccc2)c(O)c2ccccc21

>  <target or test system>
NCI-H460 lung

>  <property name>
TGI

>  <recorded value>
> 100 µM

$$$$
>  <molecule>
C[N+](C)([O-])Cc1cccc(NC(=O)c2ccc(C(=O)Nc3cccc(C[N+](C)(C)[O-])c3)cc2)c1

>  <target or test system>
NCI-H460 lung

>  <property name>
TGI

>  <recorded value>
> 100 µM

$$$$
>  <molecule>
COC(=O)C1CCC2(CC1)NC(=O)NC2=O (centres undefined)

>  <target or test system>
NCI-H460 lung

>  <property name>
TGI

>  <recorded value>
> 100 µM

$$$$
>  <molecule>
CN(C)CCCn1c2c(c3ccncc3c1=O)C(=O)c1ccccc1-2

>  <target or test system>
NCI-H460 lung

>  <property name>
TGI

>  <recorded value>
3.63 µM

$$$$
>  <molecule>
Oc1ccc(-c2nc(-c3ccc4oc5ccc(-c6[nH]c(-c7ccc(O)cc7)nc6-c6ccccc6)cc5c4c3)c(-c3ccccc3)[nH]2)cc1

>  <target or test system>
NCI-H460 lung

>  <property name>
TGI

>  <recorded value>
9.85 µM

$$$$
>  <molecule>
COc1ccc(/C(C)=C(\c2ccc(Cl)cc2)c2ccc(OCCN3CCCCC3)cc2)cc1F

>  <target or test system>
NCI-H460 lung

>  <property name>
TGI

>  <recorded value>
5.38 µM

$$$$
>  <molecule>
CC1=CC(=O)C[C@]2(C)[C@@H](O)CC(C(C)CO)C[C@@H]12 (some centres undefined)

>  <target or test system>
NCI-H460 lung

>  <property name>
TGI

>  <recorded value>
> 100 µM

$$$$
>  <molecule>
CC1SC(c2cccc(Oc3ccccc3)c2)N(CCc2cccs2)C1=O (centres undefined)

>  <target or test system>
NCI-H460 lung

>  <property name>
TGI

>  <recorded value>
2.49 µM

$$$$
>  <molecule>
Cc1nc2c(=O)n(C)c(=O)nc-2n(-c2ccc(Cl)cc2)c1C

>  <target or test system>
NCI-H460 lung

>  <property name>
TGI

>  <recorded value>
> 100 µM

$$$$
>  <molecule>
COC(=O)C1(C(=O)OC)CC2=C(S(=O)(=O)c3ccccc3)C[C@@H](C#N)[C@H]2C1

>  <target or test system>
NCI-H460 lung

>  <property name>
TGI

>  <recorded value>
> 100 µM

$$$$
>  <molecule>
CC(C)(C)OC(=O)NCCNC(=O)OCc1ccccc1

>  <target or test system>
NCI-H460 lung

>  <property name>
TGI

>  <recorded value>
> 100 µM

$$$$
>  <molecule>
N#CC1=C(N)Oc2c(ccc3ccccc23)C1c1ccccc1Cl (centres undefined)

>  <target or test system>
NCI-H460 lung

>  <property name>
TGI

>  <recorded value>
1.34 µM

$$$$
>  <molecule>
Cc1ccc(-c2cn3c(nc4ccccc43)c(C)n2)cc1

>  <target or test system>
NCI-H460 lung

>  <property name>
TGI

>  <recorded value>
> 100 µM

$$$$
>  <molecule>
CCO/C=N/C1=C(C#N)C(c2ccc(OC)c(OC)c2)c2c(-c3ccccc3)nn(-c3ccccc3)c2O1 (centres undefined)

>  <target or test system>
NCI-H460 lung

>  <property name>
TGI

>  <recorded value>
> 100 µM

$$$$
>  <molecule>
COc1cccc2c(NNc3ccc(Cl)cc3)c3ccc([N+](=O)[O-])cc3nc12

>  <target or test system>
NCI-H460 lung

>  <property name>
TGI

>  <recorded value>
17.2 µM

$$$$
>  <molecule>
O=C1c2cccc3cc4ccccc4c(c23)C(=O)N1CCCNCCNCCCN1C(=O)c2cccc3cc4ccccc4c(c23)C1=O

>  <target or test system>
NCI-H460 lung

>  <property name>
TGI

>  <recorded value>
0.161 µM

$$$$
>  <molecule>
COC(=O)[C@@H](C)C[C@H](Cc1ccccc1)NC(=O)c1cccc([C@@H](C[C@H](C(C)C)N(C)C(=O)[C@@H](NC(=O)[C@H]2CCCCN2C)C(C)C)OC(C)=O)n1

>  <target or test system>
NCI-H460 lung

>  <property name>
TGI

>  <recorded value>
> 16.7 µM

$$$$
